pKi values by entry
Test: Binding affinity against Delta Opioid receptor in Guinea pig brain membranes
Note on units: pKi is unitless, being -log10 of a concentration expressed in mol/L.

smiles-entry	pKi
NC1=NC([C@]2(N)CC[C@@]3(O)[C@H]4Cc5ccc(O)c6c5C3(CCN4CC3CC3)[C@H]2O6)=N[C@]12CC[C@@]1(O)[C@H]3Cc4ccc(O)c5c4C1(CCN3CC1CC1)[C@H]2O5	6.74

API: the following record is the query input.
Problem: Answer with reported pKi of N[C@@]1(C2=N[C@]3(CC[C@@]4(O)[C@H]5Cc6ccc(O)c7c6C4(CCN5CC4CC4)[C@H]3O7)C(=O)N2)CC[C@@]2(O)[C@H]3Cc4ccc(O)c5c4C2(CCN3CC2CC2)[C@H]1O5
Solution: 8.91
